The reported measurements were obtained from ChEMBL document CHEMBL1131365.

Below are pKi values recorded for Serine protease 1 (Homo sapiens).
FYI, pKi means -log10 of a concentration in mol per litre.

What measured pKi goes with Nc1cc[n+](Cc2ccc(OC(CCc3ccccc3)c3ccccc3)cc2)cc1 (stereo not drawn) ?
4.80

What measured pKi goes with c1ccc(COc2ccc(CNc3ccncc3)cc2)cc1 ?
3.63

---

target: Prothrombin (Homo sapiens)
Please go through the items and note down their Ki.
Answer in µM, number only, no unit symbol.

What measured Ki goes with Nc1cc[n+](Cc2ccc(OCc3ccccc3)cc2)cc1 ?
0.7

What measured Ki goes with c1ccc(COc2ccc(CNc3ccncc3)cc2)cc1 ?
4.7

What measured Ki goes with c1ccc(C(Oc2ccc(CNc3ccncc3)cc2)c2ccccc2)cc1 ?
1.3
